# target-entity: T1, biotinylated goat anti-human kappa light chain
# T1 construct: positive control of the ELISA
# experimental-protocol: ELISA, positive control; also: test concentration or dose not given here
# Procedure: The binding of ACVR2A-specific monoclonal antibodies to human ACVR2A, mouse ACVR2A, biotinylated goat anti-human kappa light chain (positive control) and human Fc (negative control) were determined by ELISA.
quantity-kind: optical density (OD)
Numeric answer only, unit OD assumed.

binder: 370_A02 (antibody, V domains shown, Group III) VH: EVQLLESGGGLVQPGGSLRLSCAASGFTFDSYGMNWVRQAPGKGLEWVAGINYNGGYTGYADSVKGRFTISRDNSKNTLYLQMNSLRAEDTAVYYCARGANWHDTALDYWGQGTLVTVSS VL: DIQMTQSPSSLSASVGDRVTITCRASQSIVTYLNWYQQKPGKAPKLVIYAATSRASGVPSRFSGSGSGTDFTLTISSLQPEDFATYYCQQSYDSPLTFGGGTKVEIK
optical density, OD: 3.62

binder: 371_H06 (antibody, V domains shown, Group III) VH: EVQLLESGGGLVQPGGSLRLSCAASGFTFDSYGMNWVRQAPGKGLEWVSGINYNGGYTSYADSVKGRFTISRDNSKNTLYLQMNSLRAEDTAVYYCARGANWHDTALDYWGQGTLVTVSS VL: DIQMTQSPSSLSASVGDRVTITCRASQSISSYLNWYQQKPGKAPKLVIYAVTSRASGVPSRFSGSGSGTDFTLTISSLQPEDFATYYCQQSYDLPLTFGGGTKVEIK
optical density, OD: 3.7

binder: 374_F08 (antibody, V domains shown, Group III) VH: EVQLLESGGGLVQPGGSLRLSCAASGFTFDSYSMNWVRQAPGKGLEWVSGINYNGGYKSYADSVKGRFTISRDNSKNTLYLQMNSLRAEDTAVYYCARGANWHDTALDYWGQGTLVTVSS VL: DIQMTQSPSSLSASVGDRVTITCRASQSILTYVNWYQQKPGKAPKLVIYAVTSRASGVPSRFSGSGSGTDFTLTISSLQPEDFATYYCQQSYDTPLTFGGGTKVEIK
optical density, OD: 3.18

binder: 374_C01 (antibody, V domains shown, Group III) VH: EVQLLESGGGLVQPGGSLRLSCAASGFTFDSYGMNWVRQAPGKGLEWVSGINYNSGYKSYADSVKGRFTISRDNSKNTLYLQMNSLRAEDTAVYYCARGANWHDTALDYWGQGTLVTVSS VL: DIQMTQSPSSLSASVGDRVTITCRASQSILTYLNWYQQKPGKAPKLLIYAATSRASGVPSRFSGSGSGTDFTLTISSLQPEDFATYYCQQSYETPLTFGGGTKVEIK
optical density, OD: 3.08

binder: 373_H07 (antibody, V domains shown, Group III) VH: EVQLLESGGGLVQPGGSLRLSCAASGFTFSSYSMNWVRQAPGKGLEWVAGINYNGGYTSYADSVKGRFTISRDNSKNTLYLQMNSLRAEDTAVYYCARGANWHDTHLDYWGQGTLVTVSS VL: DIQMTQSPSSLSASVGDRVTITCRASQSIVTYLNWYQQKPGKAPKLLIYAASSLQSGVPSRFSGSGSGTDFTLTISSLQPEDFATYYCQQSYDSPLTFGGGTKVEIK
optical density, OD: 3.23

Prompt: Give its optical density value. Item: 375_E10 (antibody, V domains shown, Group III) VH: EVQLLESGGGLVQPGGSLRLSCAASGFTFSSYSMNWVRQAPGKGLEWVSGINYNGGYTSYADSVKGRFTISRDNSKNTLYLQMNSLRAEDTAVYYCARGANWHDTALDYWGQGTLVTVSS VL: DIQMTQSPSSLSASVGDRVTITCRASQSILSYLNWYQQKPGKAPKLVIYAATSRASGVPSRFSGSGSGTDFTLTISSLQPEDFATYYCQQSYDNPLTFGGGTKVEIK
Response: 3.29

Prompt: Follow-up entry: 369_B05 (antibody, V domains shown, Group III) VH: EVQLLESGGGLVQPGGSLRLSCAASGFTFDSYSMNWVRQAPGKGLEWVSGINYNGGYKSYADSVKGRFTISRDNSKNTLYLQMNSLRAEDTAVYYCARGANWHDTHLDYWGQGTLVTVSS VL: DIQMTQSPSSLSASVGDRVTITCRASQSIISYLNWYQQKPGKAPKLLIYAATSLASGVPSRFSGSGSGTDFTLTISSLQPEDFATYYCQQSYDTPLTFGGGTKVEIK
Response: 3.44

Prompt: Follow-up entry: 373_B07 (antibody, V domains shown, Group III) VH: EVQLLESGGGLVQPGGSLRLSCAASGFTFDSYSMNWVRQAPGKGLEWVSGINYNGGYTSYADSVKGRFTISRDNSKNTLYLQMNSLRAEDTAVYYCARGANWHDTALDYWGQGTLVTVSS VL: DIQMTQSPSSLSASVGDRVTITCRASQSILTYVNWYQQKPGKAPKLVIYAATSRASGVPSRFSGSGSGTDFTLTISSLQPEDFATYYCQQSYELPLTFGGGTKVEIK
Response: 3.3

Prompt: Follow-up entry: 371_B03 (antibody, V domains shown, Group III) VH: EVQLLESGGGLVQPGGSLRLSCAASGFTFSSYGMHWVRQAPGKGLEWVASINYNGGYTSYADSVKGRFTISRDNSKNTLYLQMNSLRAEDTAVYYCARGANWHDTHLDYWGQGTLVTVSS VL: DIQMTQSPSSLSASVGDRVTITCRASQSILSYVNWYQQKPGKAPKLLIYATTSRASGVPSRFSGSGSGTDFTLTISSLQPEDFATYYCQQSYDNPLTFGGGTKVEIK
Response: 3.48

Prompt: Follow-up entry: 367_D06 (antibody, V domains shown, Group III) VH: EVQLLESGGGLVQPGGSLRLSCAASGFTFDSYSMNWVRQAPGKGLEWVAGINYNGGYTSYADSVKGRFTISRDNSKNTLYLQMNSLRAEDTAVYYCARGANWHDTHLDYWGQGTLVTVSS VL: DIQMTQSPSSLSASVGDRVTITCRASQSISTYLNWYQQKPGKAPKLVIYAATSLASGVPSRFSGSGSGTDFTLTISSLQPEDFATYYCQQSYNSPLTFGGGTKVEIK
Response: 3.25

Every entry's value here was drawn from patent US20210380703A1.
